This collection of values is drawn from ChEMBL document CHEMBL1156829.

measurement_protocol: NOVARTIS: Inhibition Frequency Index (IFI) - the number of HTS assays where a compound showed > 50% inhibition/induction, expressed as a percentage of the number of assays in which the compound was tested.
Format: functional
Over roughly 5,400 compounds, “IFI” has its median near 2; the highest 2% begin near 22. Many of the other results were omitted from the sample, so the highest values are more common in it than they were.

| molecule | unit_abbreviation | IFI |
| --- | --- | --- |
| COCC(=O)NCc1ccc(OC2CCN(CC(c3ccccc3)c3ccccc3)CC2)cc1 | % | 1.41 |
| CCN1/C(=C/c2ccc3ccccc3[n+]2CC)Sc2sc3ccccc3c21 | % | 18.3 |
| CN1/C(=C\C=C\C2=[N+](C)c3ccc4ccccc4c3C2(C)C)C(C)(C)c2ccccc21 | % | 23.1 |
| CCN1C=Cc2ccccc2/C1=C\c1ccc2ccccc2[n+]1CC | % | 23.6 |
| CC[n+]1c(/C=C2\Sc3ccc(C)cc3N2CCO)ccc2ccccc21 | % | 15.4 |
| Cc1ccc(NC(=O)C2CSC(c3cccc(F)c3)N2C(=O)c2ccc(C(C)(C)C)cc2)cc1C (stereo not given) | % | 4.25 |
| CC(C)C[C@@H]1NC(=O)[C@@H](CC(C)C)NC(=O)[C@H](C(C)C)NC(=O)[C@H]2CSSC[C@@H](NC1=O)C(=O)N2 | % | 25.9 |
| CC[n+]1c(/C=C/C=C2\N(C)c3ccccc3C2(C)C)n(-c2ccccc2)c2ccc(C)cc21 | % | 21.4 |
| CC[n+]1c(/C=C2\Sc3oc4ccccc4c3N2C)ccc2cc(C)ccc21 | % | 26.1 |
| CCOc1ccc(NC(=O)C2c3ccccc3C(=O)N(CC(C)C)C2c2cccs2)cc1 (stereo not given) | % | 6.25 |
| Brc1ccc(-c2n(Cc3ccccc3)c3ccccc3[n+]2Cc2ccccc2)o1 | % | 15.4 |
| CC[n+]1c(C=CC=C2N(C)c3ccccc3C2(C)C)sc2ccccc21 | % | 28.6 |
| CC[n+]1c(/C=C/C=C2\N(C)c3ccccc3C2(C)C)n(Cc2ccccc2)c2ccccc21 | % | 32.6 |
| COc1cccc(C(=O)Oc2ccccc2-c2nc3cc(C)ccn3c2NC(C)(C)CC(C)(C)C)c1 | % | 3.74 |
| CSc1oc(-c2ccccc2)nc1C(N)=O | % | 0 |
| CCN1/C(=C/C=C/c2sc3ccccc3[n+]2CC)Sc2ccccc21 | % | 21.7 |
| CCC1=[N+](C)c2cccc3cccc(c23)N1C | % | 3.12 |
| CCOc1ccc(-c2nc(NC(=O)CS(=O)(=O)c3ccccc3)sc2C)cc1 | % | 0 |
| CC[n+]1c(/C=C/C=C2\N(C)c3ccccc3C2(C)C)n(CCCOC(C)=O)c2ccccc21 | % | 14.3 |
| CCN1/C(=C/c2ccc3ccccc3[n+]2CC)Sc2cc(NC(C)=O)ccc21 | % | 8.33 |

* * *

measurement_protocol: NOVARTIS: Inhibition Frequency Index (IFI) - the number of HTS assays where a compound showed > 50% inhibition/induction, expressed as a percentage of the number of assays in which the compound was tested.
Type: functional
Over roughly 5,400 compounds, “IFI” has its median near 2; the highest 2% begin near 22. The entries come from a sample that favours the highest values as a whole.

| compound | IFI (%) |
| --- | --- |
| CC(=O)N(C1=C(N2CCOCC2)C(=O)c2ccccc2C1=O)c1cccc(Cl)c1 | 0 |
| CCCC1=[N+](CC(=O)c2ccc(C)cc2)CCn2c(C)ccc21 | 5.75 |
| CC(C)(C)c1ccc(CNC(=O)C(Cc2ccc(O)cc2)c2ccccc2)cc1 (stereo not given) | 0 |
| Cc1ccn2c(NC(C)(C)CC(C)(C)C)c(-c3ccccc3OC(=O)CCc3ccccc3)nc2c1 | 3.74 |
| C=CC1(C)CC23CC(C(OC(=O)c4ccccc4)c4ccnc5ccccc45)N2CCC13 (stereo not given) | 3.64 |
| CC12C(=O)N(c3cccc(C(=O)O)c3)C(=O)C1C1c3ccccc3C2c2ccccc21 (stereo not given) | 0 |
| Cc1nc2ccc(Cl)cc2c(O)c1I | 0.752 |
| O=C(Cc1cccs1)N1CCN(c2ccccn2)CC1 | 2.35 |
| CCCCNC(=S)N(Cc1cccs1)Cc1cc2cc(C)ccc2[nH]c1=O | 1.82 |
| COc1ccc(NC(=O)CCCCCn2c(SCc3cc(=O)oc4cc(O)ccc34)nc3ccsc3c2=O)cc1 | 0 |

* * *

measurement_protocol: NOVARTIS: Inhibition Frequency Index (IFI) - the number of HTS assays where a compound showed > 50% inhibition/induction, expressed as a percentage of the number of assays in which the compound was tested.
Type: functional
In all, about 5,400 compounds were measured (“IFI”: median about 2, highest 2% from about 22 on). The sample as a whole holds a higher share of the highest values than the screen did.
Listed next: entries and their corresponding IFI.

| molecule | IFI / % |
| --- | --- |
| CC(C)(C)CC(=O)NCc1ccc(OC2CCN(CC(c3ccccc3)c3ccccc3)CC2)cc1 | 7.04 |
| CCN1/C(=C/c2sc3ccc(OC)cc3[n+]2CC)C=Cc2cc(OC)ccc21 | 15.4 |
| COc1cccc2c1C(=O)C1C(O)=C3C(=C(O)C1C2=O)CC(O)(C(C)=NN=C1CC(C)(C)N(O)C(C)(C)C1)CC3OC1CC(C)(N)C(O)CO1 (centres undefined) | 21.4 |
| CCN1/C(=C\C=C\C2=[N+](C)c3ccccc3C2(C)C)N(c2ccccc2)c2ccccc21 | 28.6 |
| CN(C)c1ccc(C(=Cc2cc(-c3ccccc3)cc(-c3ccccc3)[o+]2)c2ccc(N(C)C)cc2)cc1 | 12.7 |
| COc1ccc2[nH]c(=O)c(CN(C(=S)Nc3ccccc3OC)C3CCCC3)cc2c1 | 2.17 |
| CCN1/C(=C/c2sc3ccccc3[n+]2CC)C=Cc2cc(NC(C)=O)ccc21 | 7.69 |
| CCN1/C(=C/c2sc3ccc(-c4ccccc4)cc3[n+]2CCO)C=Cc2cc(OC)ccc21 | 7.14 |
| CN(/C=C/C1=[N+](C)c2ccc(Cl)cc2C1(C)C)c1ccccc1 | 0 |
| CN(C)c1ccc(-c2nc(-c3ccc(-c4[nH]c(-c5ccc(N(C)C)cc5)nc4-c4ccccc4)cc3)c(-c3ccccc3)[nH]2)cc1 | 12.5 |
| CCN1/C(=C/C=C/C2=[N+](C)c3ccc(C)cc3C2(C)C)C=Cc2ccccc21 | 28.6 |
| CC(=O)N(Cc1ccc(F)cc1)C1=C(NCc2ccccc2)C(=O)c2ccccc2C1=O | 23.1 |
| CC1=C(C=CC(C)C=NNC(=O)c2ccncc2)C(C)(C)CCC1 (centres undefined) | 0 |
| C=CC[n+]1c(C=C2C=CN(C)C=C2)sc2ccccc21 | 15.4 |
| CC(C)CNCc1cc(-c2ccc(F)cc2)ccc1O | 0.98 |
| Cc1c(Cl)cccc1NC(=S)N(CCCN(C)c1ccccc1)Cc1cccn1Cc1ccc(Cl)cc1 | 6.45 |
| CC(=O)N(Cc1ccc(F)cc1)C1=C(NCCc2ccccc2)C(=O)c2ccccc2C1=O | 8.33 |
| CNC1=C(N(Cc2ccc(Cl)c(Cl)c2)C(C)=O)C(=O)c2ccccc2C1=O | 14.3 |
| OC(Cn1nnc2ccccc21)Cn1c2ccc(Br)cc2c2cc(Br)ccc21 (centres undefined) | 2.01 |

* * *

measurement_protocol: NOVARTIS: Inhibition Frequency Index (IFI) - the number of HTS assays where a compound showed > 50% inhibition/induction, expressed as a percentage of the number of assays in which the compound was tested.
Assay type: functional
Over roughly 5,400 compounds, “IFI” has its median near 2; the highest 2% begin near 22. This is one part of a sample in which the highest values are shown more often than they occur.

| molecule | IFI / % |
| --- | --- |
| O=C1Cc2c([nH]c3ccc(OCc4ccccc4)cc23)C2CC=CCC12 (centres undefined) | 0 |
| O=C(CCl)Nc1ccc(OC(F)F)cc1 | 0 |
| CC1CN(C(=O)C(Cc2c[nH]c3ccccc23)NC(=O)C(c2ccccc2)c2ccccc2)CCN1C(=O)NCc1ccccc1 (centres undefined) | 0 |
| CC1CCCCN1CCCNc1ncc(C(=O)NCCc2ccccc2)c(NCC2CCCO2)n1 (centres undefined) | 3.81 |
| COc1ccccc1CN1CCc2nc(-c3cnccn3)sc2C1 | 9.86 |
| N#Cc1c(-c2ccccc2)cc(N2CCN(Cc3ccc(Cl)cc3)CC2)n2c1nc1ccccc12 | 7.5 |
| CS[C@H]1SC[C@H]2C(=O)N(C)[C@@H](C(C)C)C(=O)OC[C@@H](NC(=O)c3cnc4ccccc4n3)C(=O)N[C@@H](C)C(=O)N(C)[C@@H]1C(=O)N(C)[C@@H](C(C)C)C(=O)OC[C@@H](NC(=O)c1cnc3ccccc3n1)C(=O)N[C@@H](C)C(=O)N2C | 34.6 |
| CCCCNC(=O)c1nn(-c2ccc(OC)cc2)c(=O)c2ccccc12 | 2.35 |
| CCOC(=O)c1c(C)n(-c2ccccc2)c2ccc(O)cc12 | 2.54 |
| O=S(=O)(c1ccccc1)N1CCN(CC2CNCCO2)CC1 (centres undefined) | 1.41 |
| CCc1ccc(-n2c(C(CC)N(CCC(C)C)C(=O)Nc3ccc(Cl)c(Cl)c3)nc3ccccc3c2=O)cc1 (centres undefined) | 6.67 |
| CCCCNC(=O)NC(Cc1c[nH]c2ccccc12)C(=O)NC1CCCCC1 (centres undefined) | 4.21 |
| CC(=O)Nc1ccc(-c2nc(-c3ccc(Oc4ccc(-c5[nH]c(-c6ccc(NC(C)=O)cc6)nc5-c5ccccc5)cc4)cc3)c(-c3ccccc3)[nH]2)cc1 | 1.54 |
| Oc1c2c(nc3cc(-c4ccccc4)nn13)CCCC2 | 7.14 |
| CN(C)c1ccc(/C=C/c2cccc[n+]2C)cc1 | 6.3 |
| N#CC(c1ccc(C(F)(F)F)cc1)c1ccc2c(C(F)(F)F)cc(C(F)(F)F)nc2n1 (centres undefined) | 26.3 |
| CCc1cccc2c(C#N)cn(CC(=O)Nc3ccc(OC)cc3)c12 | 7.69 |
| COC(=O)c1cn([C@H]2C[C@@H](C(=O)NCc3ccc(OC)cc3)N(Cc3ccsc3)C2)nn1 | 1.98 |
| CCOC(=O)c1sc2nc(N)c(C#N)c(-c3cccs3)c2c1N | 1.35 |
